Molecular target: human androgen receptor (Homo sapiens (Human))
Sequence (P10275 whole entry): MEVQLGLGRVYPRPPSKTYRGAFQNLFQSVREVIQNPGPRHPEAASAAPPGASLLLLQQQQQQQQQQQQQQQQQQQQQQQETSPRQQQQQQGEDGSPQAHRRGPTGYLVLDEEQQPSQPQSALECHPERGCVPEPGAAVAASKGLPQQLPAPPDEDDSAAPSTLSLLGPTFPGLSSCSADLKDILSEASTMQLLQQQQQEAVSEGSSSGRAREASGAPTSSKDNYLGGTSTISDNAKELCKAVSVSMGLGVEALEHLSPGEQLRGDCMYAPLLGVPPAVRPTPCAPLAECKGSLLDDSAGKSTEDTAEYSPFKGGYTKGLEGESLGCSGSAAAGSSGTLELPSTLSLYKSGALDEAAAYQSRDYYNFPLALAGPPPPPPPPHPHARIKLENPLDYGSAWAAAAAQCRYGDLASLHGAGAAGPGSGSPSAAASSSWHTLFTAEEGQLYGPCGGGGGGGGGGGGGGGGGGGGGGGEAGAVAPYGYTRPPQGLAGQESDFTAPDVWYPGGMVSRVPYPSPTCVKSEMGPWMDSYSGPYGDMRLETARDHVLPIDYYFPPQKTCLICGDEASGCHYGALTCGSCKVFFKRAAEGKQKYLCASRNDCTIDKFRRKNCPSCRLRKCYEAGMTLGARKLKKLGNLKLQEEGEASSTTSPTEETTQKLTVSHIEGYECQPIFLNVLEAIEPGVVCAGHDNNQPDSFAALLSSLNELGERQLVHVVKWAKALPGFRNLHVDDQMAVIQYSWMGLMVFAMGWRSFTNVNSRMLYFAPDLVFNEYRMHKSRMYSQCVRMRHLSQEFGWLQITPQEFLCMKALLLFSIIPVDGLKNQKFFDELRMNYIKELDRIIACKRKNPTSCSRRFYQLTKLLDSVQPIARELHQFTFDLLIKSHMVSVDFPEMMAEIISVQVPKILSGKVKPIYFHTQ
Assay: Antagonist activity for AR (pMMTV-luc reporter transcription activity in transfected COS-7 cells, DHT 1 nmol/L)
Settings: 50% transcription activity inhibition concentration; COS-7 cells with pMMTV-luc and pEX-hAR, DHT 1 nmol/L, 24 hours
pIC50: −log10 of the molar value.
Give TRUE when the value for pIC50 is at least 7. Give FALSE when it is less.

Here are 5 compounds together with their reported answers.
CC(C)(O)c1ccc(Nc2ncnc3c2CCN(c2ccc(C#N)cc2Cl)C3)nc1 [Comparative Example 5, reference compound] : FALSE
N#Cc1ccc(N2CCc3c(ncnc3Nc3ccc(C4(O)CCC4)c(F)n3)C2)cc1Cl : FALSE
CC(C)(O)c1ccc(Nc2ncnc3c2CCN(c2ccc(C#N)c(Cl)c2)C3)nc1F : FALSE
N#Cc1cccc(N2CCc3c(ncnc3Nc3ccc(C(=O)NCC(F)(F)F)cn3)C2)c1C(F)(F)F [Comparative Example 10, reference compound] : FALSE
Cn1nccc1CCOc1ccc(Nc2ncnc3c2CCN(c2ccc(C#N)c(C(F)(F)F)c2)C3)cc1 : FALSE

IN: Is reported pIC50 greater than or equal to 7 here: `N#Cc1ccc(N2CCc3c(ncnc3Nc3ccc(C(=O)NCC(F)(F)F)cn3)C2)cc1C(F)(F)F`
OUT: TRUE

IN: Then this compound: `CC(C)(O)c1sc(Nc2ncnc3c2CCN(c2ccc(C#N)c(C(F)(F)F)c2)C3)nc1C(F)(F)F`
OUT: FALSE

IN: Please do the same for `CC(C)(O)c1ccc(Nc2ncnc3c2CCN(c2ccc(C#N)c(Br)c2)C3)nc1` as well.
OUT: TRUE

IN: Can you check `CC(C)(COc1ncc(Nc2ncnc3c2CCN(c2ccc(C#N)c(C(F)(F)F)c2)C3)cc1F)n1ccnn1` next?
OUT: FALSE
